# credit: patent US20090304746A1

TEST SYSTEM: HLA-B*51 (Human)
MEASUREMENT DESCRIPTION: competition with 125I-labelled probe peptide, purified HLA, gel filtration
MEASURE: IC50

1. APTLWARMIL (modifications not checked) [peptide 15.0247]; 5.5 µM
